# Lookup of reported inhibition keyed by entry
- Test system: Ran GTPase (GTP-bound) - importin-beta complex
- assay: disruptors of Ran-importin-beta complex formation – biochemical, FRET, CFP-Ran, YFP-importin-beta, homogeneous, primary screen (AID 2216);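 note: 0% = DMSO wells and 100% = Ran loaded with GDP instead of GTP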
- run_parameters: cell-free CFP-Ran/YFP-importin-beta FRET ratio; active compounds read high; concentration not given here
About 3,300 (1.1%) of roughly 300,000 compounds were called active. About 6% were inconclusive and are not listed. What follows is part of a selection rich in actives, with near analogues and random picks from the rest.
Your answer should be a plain number; it is taken to be in %.

Per the records, this compound ( `CC(=O)c1ccc(NC(=O)CSC(=S)N2CCCC2)cc1` ) has inhibition equal to -0.968

Just so you know, measured inhibition for `COC(=O)CSc1nc2ccccc2c(=O)n1Cc1ccccc1` came out at 5.12

// `CN(C)c1ccc(/C=N/Nc2cc(N3CCOCC3)nc(N3CCOCC3)n2)cc1` : inhibition value = 25.8

Reported inhibition of `COC(=O)c1ccc(NCC(=O)c2ccccc2)cc1` : 1.3

# next compound below
Input `O=C(CSC(=S)N1CCOCC1)c1ccccc1` . Output inhibition: 0.663
